I'd be grateful if you could share measured INHIBITION for these entries.
Tested on: Plasmodium berghei
Assay info: Screen against P. berghei liver stage (PbLuc), transformed with Luciferase, at 10uM
Format: functional, HepG2
Protocol conditions: tested at 10 uM
Among all 69,000 compounds or so, about 8,600 (12%) showed an effect of 50% or more. This is one part of a sample in which strong results are shown more often than they occur.
Answers are plain numbers, in %.

Some solved entries appear below for comparison.
| Molecule | Target system | Measure unit | INHIBITION |
| --- | --- | --- | --- |
| COc1ccc2c(c1)NC(=O)C2OC(=O)CC(C)(C)C (stereo unspecified) | Plasmodium berghei | % | 44 |
| c1ccc(CN2CCOC3(COCCN(c4ncccn4)C3)C2)nc1 (stereo unspecified) | Plasmodium berghei | % | 20.1 |
| COc1ccc2c(c1)NC(=O)C2OC(=O)CCc1ccc(F)cc1 (stereo unspecified) | Plasmodium berghei | % | 14.9 |
| Cc1nnc(N2CCCC3(CN(Cc4cnn(C)c4)CCO3)C2)o1 (stereo unspecified) | Plasmodium berghei | % | 41.2 |

Quick one: give me INHIBITION for each item below, same order please.
1. Cn1cc(CN2CCC(F)(F)C3(CCN(c4cccc(F)c4)C3)C2)cn1 (stereo unspecified)
2. CO[C@@H]1CN(c2ccccc2)S(=O)(=O)[C@@]12CCN(Cc1cncs1)C2
3. Fc1cccc(N2CCCC3(CN(Cc4ccccn4)CCO3)C2)c1 (stereo unspecified)
4. Fc1cccc(N2CCCC3(C2)CN(c2cnccn2)CCO3)c1 (stereo unspecified)
5. Cn1cc(CN2CCOC3(CCCN(c4cccc(F)c4)C3)C2)cn1 (stereo unspecified)
6. Cc1oncc1C(=O)N1CCC2(CC1)CC(N1CCOCC1)C2

Result:
-0.371
41.9
-9.42
23.3
73
-15.9

Lab note: measured INHIBITION of Fc1cccc(N2CCCC3(C2)CN(c2ncccn2)CCO3)c1 (stereo unspecified) was 80.5

====

Test system: Plasmodium berghei
Assay info: Screen against P. berghei liver stage (PbLuc), transformed with Luciferase, at 10uM
Type: functional, HepG2
Protocol conditions: tested at 10 uM
Out of some 69,000 compounds screened, about 8,600 (12%) showed an effect of 50% or more. Shown is part of a subset that was picked to be rich in strong results.
Endpoint: INHIBITION (%)
Numbers only, in %.

Some solved entries appear below for comparison.
| Compound | INHIBITION (%) |
| --- | --- |
| O=C(NCc1cc[nH]n1)N1CCC(Oc2ccccc2Cl)CC1 | 50.2 |
| CC(C)CN(CC(F)(F)F)S(=O)(=O)c1cc(C(N)=O)n(C)c1 | -36.4 |
| CCc1c(C)nc2ccccc2c1N1CCC(O)CC1 | 24.4 |
| Fc1ccc(C2CN(c3ncnc4nc[nH]c34)CCO2)cc1 (centres undefined) | -28.6 |
| CN(Cc1cc2n(n1)CCCN(C(=O)N1CCCC1)C2)Cc1nccs1 | 38.5 |
| CN(Cc1cc2n(n1)CCN(C(=O)[C@H]1CCCO1)C2)Cc1nccs1 | 50.3 |
| O=C(NCc1cc[nH]n1)N1CCN(c2ccccc2Cl)CC1 | 39.2 |
| CCc1c(C)nc2ccccc2c1N1CCC(NC(C)=O)CC1 | 37.2 |

Quick one: give me INHIBITION for each item below, same order please.
1. CCOCCN1CCN(Cc2nc(CC(C)C)no2)CC1
2. CC(C)Cc1noc(CN2CCN(c3nccs3)CC2)n1
3. CCC(=O)N(C)C1CCN(Cc2ncc(C)c(OC)c2C)CC1
4. COc1ccc(C(=O)N2CCC(Nc3cccnn3)CC2)c(F)c1
5. COc1c(C)cnc(CN(C)C2CCOC3(CCOCC3)C2)c1C (centres undefined)
6. CN1CC(C(=O)N2CCC(Oc3ccccc3Cl)CC2)CC1=O (centres undefined)

Result:
[53.575, -22.6, 10.8, -32, 43.6, 35.5]

Quick one: give me INHIBITION for each item below, same order please.
1. Cc1cnn(CC2CCCCN2C(=O)CCCc2nc(C)no2)c1 (centres undefined)
2. O=C(C1CC(=O)N(C2CC2)C1)N1CCC(Oc2ccccc2Cl)CC1 (centres undefined)
3. CCN1CCc2[nH]cnc2C12CCN(Cc1ccc3nsnc3c1)CC2

Result:
11.3
-6.88
23.6

Quick one: give me INHIBITION for each item below, same order please.
1. CC(C)Cc1noc(CN2CCCN(C(=O)c3ccccc3Cl)CC2)n1
2. COc1c(C)cnc(CN2CCC(N(C)C(=O)C(C)OC)CC2)c1C (centres undefined)
3. COc1c(C)cnc(CN2CCC(N(C)S(C)(=O)=O)CC2)c1C
4. Cc1cc(N2CCOC(c3ccncn3)C2)ncn1 (centres undefined)
5. COCc1cc(N2CCOC(c3ccc(F)cc3)C2)ncn1 (centres undefined)

Result:
1: 37.2; 2: -29.8; 3: -21.9; 4: 26.7; 5: 38.3

Numbers sourced from ChEMBL document CHEMBL4513216.
